In this section we review reported koff1 (2:1 heterogeneous ligand model) values for a set of binders.
- target.or.test.system: filamentous actin (F-actin) from rabbit skeletal muscle (rabbit, UniProt P68135 1-377)
- experiment.summary: BLI; F-actin immobilised on Streptavidin (SA) biosensors through LAbio peptide; αcat-ABD in solution at various concentrations; 26 °C, Octet384; 2 mM Tris-HCl pH 8.0, 0.2 mM ATP, 0.5 mM DTT, 0.1 mM CaCl2, 50 mM KCl, 2 mM MgCl2, 0.1% BSA, 0.02% Tween-20; 2:1 heterogeneous ligand model
- experimental.parameters: both partners purified
Numbers only here, please. The scale is s⁻¹.

Worked cases, koff1 (2:1 heterogeneous ligand model) given:
αEcat-ABD 3A (L785A, I792A and V796A together) (domain or fragment, source: E. coli BL21-CodonPlus, purified (glutathione-sepharose, thrombin cleavage, Superdex 75); not shown: GST, N-terminal, cleaved) SRTSVQTEDDQLIAGQSARAIMAQLPQEQKAKIAEQVASFQEEKSKLDAEVSKWDDSGNDIIVLAKQMCMIMMEMTDFTRGKGPLKNTSDVISAAKKIAEAGSRMDKLGRTIADHCPDSACKQDLLAYLQRIAAYCHQLNACSKAKAEVQNLGGELVVSGVDSAMSLIQAAKNLMNAVVQTVKASYVASTKYQKSQGMASLNLPAVSWKMKAPEKKPLVKREKQDETQTKIKRASQKKHVNPVQALSEFKAMDSI = 0.799
αEcat-ABD I792A (domain or fragment, source: E. coli BL21-CodonPlus, purified (glutathione-sepharose, thrombin cleavage, Superdex 75); not shown: GST, N-terminal, cleaved) SRTSVQTEDDQLIAGQSARAIMAQLPQEQKAKIAEQVASFQEEKSKLDAEVSKWDDSGNDIIVLAKQMCMIMMEMTDFTRGKGPLKNTSDVISAAKKIAEAGSRMDKLGRTIADHCPDSACKQDLLAYLQRIALYCHQLNACSKVKAEVQNLGGELVVSGVDSAMSLIQAAKNLMNAVVQTVKASYVASTKYQKSQGMASLNLPAVSWKMKAPEKKPLVKREKQDETQTKIKRASQKKHVNPVQALSEFKAMDSI = 0.945
αE-catenin actin-binding domain, wild type (αEcat-ABD-WT; residues 652-906) (domain or fragment, source: E. coli BL21-CodonPlus, purified (glutathione-sepharose, thrombin cleavage, Superdex 75); not shown: GST, N-terminal, cleaved) SRTSVQTEDDQLIAGQSARAIMAQLPQEQKAKIAEQVASFQEEKSKLDAEVSKWDDSGNDIIVLAKQMCMIMMEMTDFTRGKGPLKNTSDVISAAKKIAEAGSRMDKLGRTIADHCPDSACKQDLLAYLQRIALYCHQLNICSKVKAEVQNLGGELVVSGVDSAMSLIQAAKNLMNAVVQTVKASYVASTKYQKSQGMASLNLPAVSWKMKAPEKKPLVKREKQDETQTKIKRASQKKHVNPVQALSEFKAMDSI = 0.465
αEcat-ABD L785A (domain or fragment, source: E. coli BL21-CodonPlus, purified (glutathione-sepharose, thrombin cleavage, Superdex 75); not shown: GST, N-terminal, cleaved) SRTSVQTEDDQLIAGQSARAIMAQLPQEQKAKIAEQVASFQEEKSKLDAEVSKWDDSGNDIIVLAKQMCMIMMEMTDFTRGKGPLKNTSDVISAAKKIAEAGSRMDKLGRTIADHCPDSACKQDLLAYLQRIAAYCHQLNICSKVKAEVQNLGGELVVSGVDSAMSLIQAAKNLMNAVVQTVKASYVASTKYQKSQGMASLNLPAVSWKMKAPEKKPLVKREKQDETQTKIKRASQKKHVNPVQALSEFKAMDSI = 0.69
αEcat-ABD V796A (domain or fragment, source: E. coli BL21-CodonPlus, purified (glutathione-sepharose, thrombin cleavage, Superdex 75); not shown: GST, N-terminal, cleaved) SRTSVQTEDDQLIAGQSARAIMAQLPQEQKAKIAEQVASFQEEKSKLDAEVSKWDDSGNDIIVLAKQMCMIMMEMTDFTRGKGPLKNTSDVISAAKKIAEAGSRMDKLGRTIADHCPDSACKQDLLAYLQRIALYCHQLNICSKAKAEVQNLGGELVVSGVDSAMSLIQAAKNLMNAVVQTVKASYVASTKYQKSQGMASLNLPAVSWKMKAPEKKPLVKREKQDETQTKIKRASQKKHVNPVQALSEFKAMDSI = 0.773

Alright, here's another binder for you.
Query: Query (binder): αEcat-ABD V714A (domain or fragment, source: E. coli BL21-CodonPlus, purified (glutathione-sepharose, thrombin cleavage, Superdex 75); not shown: GST, N-terminal, cleaved) SRTSVQTEDDQLIAGQSARAIMAQLPQEQKAKIAEQVASFQEEKSKLDAEVSKWDDSGNDIIALAKQMCMIMMEMTDFTRGKGPLKNTSDVISAAKKIAEAGSRMDKLGRTIADHCPDSACKQDLLAYLQRIALYCHQLNICSKVKAEVQNLGGELVVSGVDSAMSLIQAAKNLMNAVVQTVKASYVASTKYQKSQGMASLNLPAVSWKMKAPEKKPLVKREKQDETQTKIKRASQKKHVNPVQALSEFKAMDSI ; field requested: koff1 (2:1 heterogeneous ligand model)
Response: 0.568

These entries and their values trace back to paper PMC6269467.
